- System: Mus musculus
- test: In vivo antitumor activity against P-388 leukemia in CDF1 mice at 8 mg or 21 umol by ip administration expressed as average wt. change determined between day 0 and day 6 of experiment
- Format: functional
Listed here are compounds together with their documented Average weight change.
The figure you give is taken to be in g; do not add the unit.

Some compounds with known Average weight change results, for comparison:
### Prompt I'd like to know its Average weight change. The compound in question is CC1(C)CN1P(=O)(NC(=O)OCc1ccccc1[N+](=O)[O-])N1CC1(C)C (centres undefined)
### Response 0.6

### Prompt So what's the measured Average weight change for this one? CC1(C)CN1P(=O)(NC(=O)OCCn1ccnc1[N+](=O)[O-])N1CC1(C)C (centres undefined)
### Response 1.6

Next:
### Prompt # query: Average weight change of entry CC1(C)CN1P(=O)(NC(=O)OCc1ccc([N+](=O)[O-])cc1)N1CC1(C)C (centres undefined)
### Response 1.4

### Prompt Recorded Average weight change for COCC(Cn1ccnc1[N+](=O)[O-])OP(=O)(N1CC1(C)C)N1CC1(C)C (centres undefined) , please?
### Response 1.2
